src = patent US10562947B2

target entity: Txk(h) (Homo sapiens, UniProt P42681)
Sequence (P42681 1-527): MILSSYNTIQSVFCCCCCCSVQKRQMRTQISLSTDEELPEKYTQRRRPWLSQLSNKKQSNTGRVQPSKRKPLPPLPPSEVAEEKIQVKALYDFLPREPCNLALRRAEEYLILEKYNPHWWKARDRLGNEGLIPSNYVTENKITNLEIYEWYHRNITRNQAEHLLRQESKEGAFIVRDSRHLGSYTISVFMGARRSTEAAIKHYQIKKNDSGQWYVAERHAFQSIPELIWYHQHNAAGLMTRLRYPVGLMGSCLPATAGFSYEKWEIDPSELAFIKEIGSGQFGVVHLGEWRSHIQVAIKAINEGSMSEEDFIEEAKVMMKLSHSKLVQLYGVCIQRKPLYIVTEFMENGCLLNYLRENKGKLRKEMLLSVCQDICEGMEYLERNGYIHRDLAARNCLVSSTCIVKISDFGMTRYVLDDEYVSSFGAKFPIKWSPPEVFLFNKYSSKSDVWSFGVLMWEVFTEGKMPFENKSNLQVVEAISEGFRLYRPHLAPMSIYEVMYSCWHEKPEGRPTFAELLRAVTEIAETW
test: Kinase Profiling Assay
Type: biochemical
experimental parameters: 100 μM peptide
Method: Every kinase activity measurement was conducted in duplicate. In addition to determining the IC50 of the compound, the specificity of MK2 inhibitory peptides was assessed by examining activities of all 266 human kinases available for testing in the Millipore kinase profiling service (Table 1).
parameter: Txk(h) % activity (%)
Give your result in % as a bare value.

For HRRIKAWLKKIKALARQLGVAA (Mammalian) [MMI-0500] , what is its reported Txk(h) % activity?
10

Try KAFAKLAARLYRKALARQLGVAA [MMI-0400] next.
37

Another sequence to look at: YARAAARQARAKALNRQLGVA (Mammalian) [MMI-0200]
98

Entry to check: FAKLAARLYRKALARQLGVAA [MMI-0300]
48

----------
target entity: SAPK2a(T106M)(h) (Homo sapiens, UniProt Q16539, T106M)
Sequence (Q16539 whole entry T106M): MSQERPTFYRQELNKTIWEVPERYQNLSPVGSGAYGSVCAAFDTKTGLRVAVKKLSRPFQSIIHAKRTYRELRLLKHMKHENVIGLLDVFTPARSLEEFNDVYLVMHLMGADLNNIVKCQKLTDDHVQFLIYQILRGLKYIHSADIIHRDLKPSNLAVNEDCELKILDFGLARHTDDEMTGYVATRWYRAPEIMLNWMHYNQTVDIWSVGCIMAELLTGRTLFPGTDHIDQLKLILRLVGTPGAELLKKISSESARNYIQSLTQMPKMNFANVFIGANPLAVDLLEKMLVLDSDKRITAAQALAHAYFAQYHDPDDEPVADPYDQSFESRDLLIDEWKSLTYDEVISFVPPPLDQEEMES
test: Kinase Profiling Assay
Format: biochemical
experimental parameters: 100 μM peptide
Below: a set of entries, each annotated with reported SAPK2a(T106M)(h) % activity.
Report the value in % with no unit label.

Solved entries (count: 3):
seq string	result unit	SAPK2a(T106M)(h) % activity
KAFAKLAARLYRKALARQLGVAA [MMI-0400]	%	99
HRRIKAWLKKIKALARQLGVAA (Mammalian) [MMI-0500]	%	32
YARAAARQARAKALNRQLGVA (Mammalian) [MMI-0200]	%	100

Fill in the blank: the reported SAPK2a(T106M)(h) % activity of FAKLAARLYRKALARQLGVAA [MMI-0300] is ____.
97

----------
# KDR(h) % activity listing for each entry below
target entity: KDR(h) (Homo sapiens, UniProt P35968)
Sequence (P35968 20-1356): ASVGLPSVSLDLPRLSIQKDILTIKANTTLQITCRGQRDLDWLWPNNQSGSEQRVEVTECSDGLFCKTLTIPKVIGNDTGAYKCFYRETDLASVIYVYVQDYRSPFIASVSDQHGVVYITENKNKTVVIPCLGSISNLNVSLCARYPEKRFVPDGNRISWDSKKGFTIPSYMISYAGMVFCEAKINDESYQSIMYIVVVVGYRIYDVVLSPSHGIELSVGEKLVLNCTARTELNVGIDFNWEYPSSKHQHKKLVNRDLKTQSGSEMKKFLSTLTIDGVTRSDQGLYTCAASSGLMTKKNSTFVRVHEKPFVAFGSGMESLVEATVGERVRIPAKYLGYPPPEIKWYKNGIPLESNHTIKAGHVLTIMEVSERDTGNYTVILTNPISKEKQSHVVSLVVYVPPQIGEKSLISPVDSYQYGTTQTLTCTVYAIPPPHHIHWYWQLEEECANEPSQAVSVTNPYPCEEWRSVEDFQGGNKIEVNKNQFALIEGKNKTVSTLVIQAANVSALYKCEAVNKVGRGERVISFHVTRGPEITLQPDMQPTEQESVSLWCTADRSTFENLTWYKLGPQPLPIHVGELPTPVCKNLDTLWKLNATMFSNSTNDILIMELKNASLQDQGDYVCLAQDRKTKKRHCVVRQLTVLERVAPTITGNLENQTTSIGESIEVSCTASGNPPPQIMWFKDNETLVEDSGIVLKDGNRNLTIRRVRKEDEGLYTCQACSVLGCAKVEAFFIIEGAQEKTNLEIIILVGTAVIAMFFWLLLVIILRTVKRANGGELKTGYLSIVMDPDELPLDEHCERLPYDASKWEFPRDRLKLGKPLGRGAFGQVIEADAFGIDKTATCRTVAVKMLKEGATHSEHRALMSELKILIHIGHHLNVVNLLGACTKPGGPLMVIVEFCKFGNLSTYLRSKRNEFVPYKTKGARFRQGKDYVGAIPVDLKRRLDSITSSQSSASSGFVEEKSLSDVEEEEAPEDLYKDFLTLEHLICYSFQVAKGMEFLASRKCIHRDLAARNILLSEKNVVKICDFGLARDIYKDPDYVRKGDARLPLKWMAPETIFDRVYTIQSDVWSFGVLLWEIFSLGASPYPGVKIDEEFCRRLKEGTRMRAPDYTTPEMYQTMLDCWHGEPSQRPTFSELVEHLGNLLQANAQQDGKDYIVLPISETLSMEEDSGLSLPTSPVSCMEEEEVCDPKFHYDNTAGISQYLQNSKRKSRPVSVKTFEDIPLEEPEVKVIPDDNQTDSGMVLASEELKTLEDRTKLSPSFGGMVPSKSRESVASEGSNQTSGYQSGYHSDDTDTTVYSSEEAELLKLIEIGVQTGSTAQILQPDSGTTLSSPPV
test: Kinase Profiling Assay
Type: biochemical
experimental parameters: 100 μM peptide
Number in %, nothing else.

seq string	target entity	KDR(h) % activity (%)
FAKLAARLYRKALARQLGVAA [MMI-0300]	KDR(h) (Homo sapiens, UniProt P35968)	101
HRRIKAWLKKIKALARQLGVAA (Mammalian) [MMI-0500]	KDR(h) (Homo sapiens, UniProt P35968)	15
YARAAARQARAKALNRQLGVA (Mammalian) [MMI-0200]	KDR(h) (Homo sapiens, UniProt P35968)	110

// lookup KDR(h) % activity for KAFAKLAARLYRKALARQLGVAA [MMI-0400]
94

----------
Each record here notes measured NEK3(h) % activity.
target entity: NEK3(h) (Homo sapiens)
Sequence (P51956 1-506): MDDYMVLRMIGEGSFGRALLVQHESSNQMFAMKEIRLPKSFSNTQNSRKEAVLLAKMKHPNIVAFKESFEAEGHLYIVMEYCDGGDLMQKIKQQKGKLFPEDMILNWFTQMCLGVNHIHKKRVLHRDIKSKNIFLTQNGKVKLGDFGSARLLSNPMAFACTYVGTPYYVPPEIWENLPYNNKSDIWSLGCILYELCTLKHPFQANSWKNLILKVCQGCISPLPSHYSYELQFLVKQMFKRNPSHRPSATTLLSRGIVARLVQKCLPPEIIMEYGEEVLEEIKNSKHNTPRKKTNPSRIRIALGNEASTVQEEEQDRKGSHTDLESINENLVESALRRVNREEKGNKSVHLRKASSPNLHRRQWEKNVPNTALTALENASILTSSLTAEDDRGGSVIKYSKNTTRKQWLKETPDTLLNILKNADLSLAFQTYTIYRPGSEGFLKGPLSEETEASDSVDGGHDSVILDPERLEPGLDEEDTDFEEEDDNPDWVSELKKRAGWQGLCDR
test: Kinase Profiling Assay
Assay type: biochemical
experimental parameters: 100 μM peptide
// unit must come after the numeric part

Example entries and their recorded answers appear below.
seq string	NEK3(h) % activity
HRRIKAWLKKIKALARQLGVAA (Mammalian) [MMI-0500]	20%
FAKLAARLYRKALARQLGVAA [MMI-0300]	92%

Need NEK3(h) % activity, item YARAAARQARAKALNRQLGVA (Mammalian) [MMI-0200]
100%

// same read-out, input: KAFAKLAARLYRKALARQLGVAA [MMI-0400]
85%

----------
target entity: ZIPK(h) (Homo sapiens, UniProt O43293)
Sequence (O43293 whole entry): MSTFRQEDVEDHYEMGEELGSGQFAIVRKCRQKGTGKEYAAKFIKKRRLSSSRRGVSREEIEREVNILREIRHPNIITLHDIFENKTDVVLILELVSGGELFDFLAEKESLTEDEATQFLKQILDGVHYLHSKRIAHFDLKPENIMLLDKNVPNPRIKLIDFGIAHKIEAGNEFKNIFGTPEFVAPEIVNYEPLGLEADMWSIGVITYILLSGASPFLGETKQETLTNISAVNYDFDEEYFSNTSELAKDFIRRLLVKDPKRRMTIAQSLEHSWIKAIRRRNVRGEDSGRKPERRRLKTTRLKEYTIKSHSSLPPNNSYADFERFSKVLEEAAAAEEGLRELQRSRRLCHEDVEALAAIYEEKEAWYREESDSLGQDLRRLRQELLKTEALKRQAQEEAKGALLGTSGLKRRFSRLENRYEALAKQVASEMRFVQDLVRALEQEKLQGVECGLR
test: Kinase Profiling Assay
Type: biochemical
experimental parameters: 100 μM peptide
// reported ZIPK(h) % activity per item
Report as a plain number; the unit % is understood.

Solved cases (3 shown):
seq string	result unit	ZIPK(h) % activity
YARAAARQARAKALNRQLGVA (Mammalian) [MMI-0200]	%	67
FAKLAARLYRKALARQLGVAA [MMI-0300]	%	28
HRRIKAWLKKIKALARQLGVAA (Mammalian) [MMI-0500]	%	1

# ---- query sequence ----
Find the measured ZIPK(h) % activity: item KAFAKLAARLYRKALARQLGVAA [MMI-0400] , target or system ZIPK(h) (Homo sapiens, UniProt O43293).
13

----------
target entity: ASK1(h) (Homo sapiens, UniProt Q99683)
Sequence (Q99683 1-1374): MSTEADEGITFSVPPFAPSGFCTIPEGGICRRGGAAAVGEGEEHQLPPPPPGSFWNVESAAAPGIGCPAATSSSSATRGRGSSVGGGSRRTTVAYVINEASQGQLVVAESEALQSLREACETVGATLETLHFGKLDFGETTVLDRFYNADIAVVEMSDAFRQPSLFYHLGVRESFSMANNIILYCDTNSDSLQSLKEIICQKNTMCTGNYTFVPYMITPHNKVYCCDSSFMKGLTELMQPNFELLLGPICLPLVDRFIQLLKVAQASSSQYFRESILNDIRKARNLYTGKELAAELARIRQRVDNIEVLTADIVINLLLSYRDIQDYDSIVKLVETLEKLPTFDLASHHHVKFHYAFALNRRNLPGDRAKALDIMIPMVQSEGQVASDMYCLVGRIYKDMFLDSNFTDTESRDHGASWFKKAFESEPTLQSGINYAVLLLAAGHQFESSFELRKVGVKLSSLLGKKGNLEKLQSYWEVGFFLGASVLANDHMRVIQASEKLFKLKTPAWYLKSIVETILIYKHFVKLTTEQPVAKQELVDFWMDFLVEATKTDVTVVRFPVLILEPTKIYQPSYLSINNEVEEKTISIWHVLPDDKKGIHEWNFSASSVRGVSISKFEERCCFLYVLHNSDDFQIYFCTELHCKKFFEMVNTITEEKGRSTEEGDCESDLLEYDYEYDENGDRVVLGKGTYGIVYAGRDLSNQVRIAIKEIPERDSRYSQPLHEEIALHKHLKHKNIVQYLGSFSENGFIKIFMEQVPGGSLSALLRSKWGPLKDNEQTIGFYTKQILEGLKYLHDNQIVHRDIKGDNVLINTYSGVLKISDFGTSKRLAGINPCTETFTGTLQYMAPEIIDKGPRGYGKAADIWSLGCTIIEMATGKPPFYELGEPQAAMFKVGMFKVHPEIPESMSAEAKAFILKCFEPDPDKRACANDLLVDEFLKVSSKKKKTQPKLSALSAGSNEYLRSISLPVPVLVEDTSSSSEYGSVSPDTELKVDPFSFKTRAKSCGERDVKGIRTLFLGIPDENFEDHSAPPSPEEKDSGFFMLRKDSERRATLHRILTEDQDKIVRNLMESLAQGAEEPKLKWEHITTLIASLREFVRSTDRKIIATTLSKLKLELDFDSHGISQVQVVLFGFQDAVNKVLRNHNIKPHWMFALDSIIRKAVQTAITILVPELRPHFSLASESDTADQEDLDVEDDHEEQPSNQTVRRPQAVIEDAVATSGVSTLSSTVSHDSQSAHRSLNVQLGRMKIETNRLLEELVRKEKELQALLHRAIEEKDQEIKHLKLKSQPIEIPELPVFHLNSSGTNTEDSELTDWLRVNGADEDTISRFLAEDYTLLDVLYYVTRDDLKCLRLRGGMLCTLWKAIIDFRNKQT
test: Kinase Profiling Assay
Assay type: biochemical
experimental parameters: 100 μM peptide
Listed sequences paired with reported ASK1(h) % activity
Answer format: numeric, % implied, no suffix.

seq string	ASK1(h) % activity [%]
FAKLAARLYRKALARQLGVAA [MMI-0300]	80

Reported ASK1(h) % activity for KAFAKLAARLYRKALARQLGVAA [MMI-0400] : what is it?
69

Next up: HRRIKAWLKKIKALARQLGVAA (Mammalian) [MMI-0500]
−4

// repeat for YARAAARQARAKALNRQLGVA (Mammalian) [MMI-0200] and report
101
